Each recorded value in this set is attributed to ChEMBL document CHEMBL4814013.

system: SK-CO-1; experiment: Antiproliferative activity against human SK-CO-1 cells expressing mutant KRAS assessed as reduction in cell growth incubated for 72 hrs by CyQuant proliferation assay; assay type: functional, cell-based; conditions: SK-CO-1, 72 h
Measured pIC50 values are reported for all entries that follow.
Answer as the number alone; pIC50 is minus log10 of concentration in mol/L.

Name the recorded pIC50 for COc1ccc([C@@H](C)N(CC=C(c2ccccc2)c2ccccc2)CCN2CCCC2)cc1 .
5.52

Next:
Name the recorded pIC50 for COc1ccc([C@@H](C)N(CC=C(c2ccccc2)c2ccccc2)CCN2CCN(C)CC2)cc1 .
5.48

Could you do the same for COc1ccc([C@@H](C)N(CC=C(c2ccccc2)c2ccccc2)CCCN2CCN(C)CC2)cc1 , please?
5.46

====

tested on: MDCK; assay: Cytotoxicity against dog MDCK cells at 30 uM; assay type: functional, cell-based; conditions: Canis lupus familiaris
Active and inactive are the calls of the source. No cut-off for these calls is given here.
I would appreciate it if you answered using one of these outcomes: active, inactive

GET /call?item= COc1ccc([C@@H](C)N(CC=C(c2ccccc2)c2ccccc2)CCCCN2CCN(C)CC2)cc1 returns the recorded outcome of this test.
active

Next:
GET /call?item= COc1ccc([C@@H](C)N(CC=C(c2ccccc2)c2ccccc2)CCCN2CCN(C)CC2)cc1 returns the recorded outcome of this test.
active

Could you do the same for COc1ccc([C@@H](C)N(CC=C(c2ccccc2)c2ccccc2)CCN2CCCCC2)cc1 , please?
active

Could you do the same for C[C@H](c1ccc([N+](=O)[O-])cc1)N(CC=C(c1ccccc1)c1ccccc1)CCN1CCN(C)CC1 , please?
active

Could you do the same for COc1ccc([C@@H](C)N(CC=C(c2ccccc2)c2ccccc2)CCO)cc1 , please?
inactive

Could you do the same for COc1ccc([C@@H](C)N(CC=C(c2ccccc2)c2ccccc2)CCN2CCN(C)CC2)cc1 , please?
active

Could you do the same for C=CCN(CC=C(c1ccccc1)c1ccccc1)[C@H](C)c1ccc(OC)cc1 , please?
inactive

Could you do the same for C[C@H](c1ccc(Cl)cc1)N(CC=C(c1ccccc1)c1ccccc1)CCN1CCN(C)CC1 , please?
active

Could you do the same for COc1ccccc1[C@@H](C)N(CC=C(c1ccccc1)c1ccccc1)CCN1CCN(C)CC1 , please?
active

Could you do the same for C[C@H](c1ccccc1)N(CC=C(c1ccccc1)c1ccccc1)CCN1CCN(C)CC1 , please?
active

Could you do the same for COc1ccc([C@@H](C)N(CC=C(c2ccccc2)c2ccccc2)CCF)cc1 , please?
inactive

====

Measured IC50 values are reported for all entries that follow.
tested on: NCI-H522; assay: Antiproliferative activity against human NCI-H522 cells expressing wild type KRAS assessed as reduction in cell growth incubated for 72 hrs by CyQuant proliferation assay; format: functional, cell-based; settings: NCI-H522, 72 h

Below, 4 compounds whose answers are already recorded.
Name the recorded IC50 for COc1ccc([C@@H](C)N(CC=C(c2ccccc2)c2ccccc2)CCN2CCN(C)CC2)cc1 .
28.2 µM

Could you do the same for CC(NCCC(c1ccccc1)c1ccccc1)c1ccccc1 (stereo not given) , please?
29.6 µM

Could you do the same for COc1ccc([C@@H](C)N(CC=C(c2ccccc2)c2ccccc2)CCN2CCCC2)cc1 , please?
27.3 µM

Could you do the same for COc1ccc([C@@H](C)N(CC=C(c2ccccc2)c2ccccc2)CC=C(c2ccccc2)c2ccccc2)cc1 , please?
> 30 µM

Okay, next one:
Name the recorded IC50 for COc1ccc([C@@H](C)N(CC=C(c2ccccc2)c2ccccc2)CCCN2CCN(C)CC2)cc1 .
23.5 µM
